Conditions: in ethanol, 308.88 K

{"columns": ["moleculeSmiles", "solubility (mole fraction)"],
 "data": [
  ["CCCCCCOC(=O)NC(=N)c1ccc(NCc2nc3cc(C(=O)N(CCC(=O)OCC)c4ccccn4)ccc3n2C)cc1.CS(=O)(=O)O", 0.00267]
]}

====

Conditions: in methanol, 318.4 K

{"columns": ["moleculeSmiles", "solubility (mole fraction)"],
 "data": [
  ["CCCCCCOC(=O)NC(=N)c1ccc(NCc2nc3cc(C(=O)N(CCC(=O)OCC)c4ccccn4)ccc3n2C)cc1.CS(=O)(=O)O", 0.0471]
]}

====

Settings: in ethylene glycol, 323.39 K
testReadout: solubility (mole fraction)

{"columns": ["moleculeSmiles", "testReadout", "testResult"],
 "data": [
  ["CCCCCCOC(=O)NC(=N)c1ccc(NCc2nc3cc(C(=O)N(CCC(=O)OCC)c4ccccn4)ccc3n2C)cc1.CS(=O)(=O)O", "solubility (mole fraction)", 0.0179]
]}

====

Details: in DMAc, 292.2 K

{"columns": ["moleculeSmiles", "solubility (mole fraction)"],
 "data": [
  ["CCCCCCOC(=O)NC(=N)c1ccc(NCc2nc3cc(C(=O)N(CCC(=O)OCC)c4ccccn4)ccc3n2C)cc1.CS(=O)(=O)O", 0.0241]
]}

====

Conditions: in ethylene glycol, 287.37 K

{"columns": ["moleculeSmiles", "solubility (mole fraction)"],
 "data": [
  ["CCCCCCOC(=O)NC(=N)c1ccc(NCc2nc3cc(C(=O)N(CCC(=O)OCC)c4ccccn4)ccc3n2C)cc1.CS(=O)(=O)O", 0.00425]
]}

====

Conditions: in DMAc, 303.97 K
testReadout: solubility (mole fraction)

{"columns": ["moleculeSmiles", "testResult"],
 "data": [
  ["CCCCCCOC(=O)NC(=N)c1ccc(NCc2nc3cc(C(=O)N(CCC(=O)OCC)c4ccccn4)ccc3n2C)cc1.CS(=O)(=O)O", 0.0285]
]}

====

Settings: in methanol, 323.39 K

{"columns": ["moleculeSmiles", "solubility (mole fraction)"],
 "data": [
  ["CCCCCCOC(=O)NC(=N)c1ccc(NCc2nc3cc(C(=O)N(CCC(=O)OCC)c4ccccn4)ccc3n2C)cc1.CS(=O)(=O)O", 0.055]
]}

====

Details: in DMAc, 323.39 K
testReadout: solubility (mole fraction)

{"columns": ["moleculeSmiles", "testReadout", "testResult"],
 "data": [
  ["CCCCCCOC(=O)NC(=N)c1ccc(NCc2nc3cc(C(=O)N(CCC(=O)OCC)c4ccccn4)ccc3n2C)cc1.CS(=O)(=O)O", "solubility (mole fraction)", 0.0403]
]}

====

Conditions: in ethanol, 287.37 K

{"columns": ["moleculeSmiles", "solubility (mole fraction)"],
 "data": [
  ["CCCCCCOC(=O)NC(=N)c1ccc(NCc2nc3cc(C(=O)N(CCC(=O)OCC)c4ccccn4)ccc3n2C)cc1.CS(=O)(=O)O", 0.00092]
]}

====

Conditions: in methanol, 308.88 K
testReadout: solubility (mole fraction)

{"columns": ["moleculeSmiles", "testReadout", "testResult"],
 "data": [
  ["CCCCCCOC(=O)NC(=N)c1ccc(NCc2nc3cc(C(=O)N(CCC(=O)OCC)c4ccccn4)ccc3n2C)cc1.CS(=O)(=O)O", "solubility (mole fraction)", 0.0333]
]}

====

Details: in ethylene glycol, 313.59 K

{"columns": ["moleculeSmiles", "solubility (mole fraction)"],
 "data": [
  ["CCCCCCOC(=O)NC(=N)c1ccc(NCc2nc3cc(C(=O)N(CCC(=O)OCC)c4ccccn4)ccc3n2C)cc1.CS(=O)(=O)O", 0.0112]
]}

Every entry's value here was drawn from BigSolDB 2.1.
